B1: CHMP4C (parent)
chain: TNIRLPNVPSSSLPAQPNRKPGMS

variants of: B1; assay: protein stability index of a GFP-peptide fusion (GPS, HEK-293T) (PSI 1-6); higher = more stable; conditions: c terminus: a fixed tail appended;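 further: lentivirally expressed fusions sorted by FACS into six bins by GFP to DsRed ratio, PSI derived from sequencing read proportions per bin multiplied by bin number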
quantityName: protein stability index
Answer with the value's number alone.

Recorded results for 5 variants are shown here.
{"polymerSequence": "TNIRLPNVPMSSLPAQPNRKPGMS", "quantityName": "protein stability index", "dataValue": 4.48}
{"polymerSequence": "TNIRLPNVPSSSLPAQLNRKPGMS", "quantityName": "protein stability index", "dataValue": 4.14}
{"polymerSequence": "TNIRLPNVPSSSLPAQPNRNPGMS", "quantityName": "protein stability index", "dataValue": 4.41}
{"polymerSequence": "WNIRLPNVPSSSLPAQPNRKPGMS", "quantityName": "protein stability index", "dataValue": 3.62}
{"polymerSequence": "TNIRLPNVPSSSLPAQPHRKPGMS", "quantityName": "protein stability index", "dataValue": 4.85}

For reference, reported protein stability index for "TNIRLPNVPSSSLPGQPNRKPGMS" stands at 4.69
